Reference source for all entries: the supplement of paper PMC7801607

Test system: Plasmodium falciparum NF54 stage IV/V gametocytes
Assay: % inhibition of gametocyte viability (luciferase reporter); higher = more inhibition
Details: 1 µM; 48 h
Could you mark each record Fulfilled if its % inhibition of gametocyte viability falls strictly under 2%, and Not fulfilled if it equals or exceeds it?

Use these answered entries as a reference point.
{"columns": ["molecule", "assignedClass"],
 "data": [
  ["Cc1ccccc1NC(=O)Nc1cccc([N+](=O)[O-])c1", "Not fulfilled"],
  ["CCOC(=O)N[C@@H]1CC[C@@H]2[C@@H](C1)C[C@H]1C(=O)O[C@H](C)[C@H]1[C@H]2/C=C/c1ccc(-c2cccc(F)c2)cn1", "Not fulfilled"],
  ["CCCCCCC1c2ccc(O)cc2Oc2cc(O)ccc21", "Fulfilled"],
  ["CC#C[C@]1(O)CC[C@H]2[C@@H]3CCC4=CC(=O)CCC4=C3[C@@H](c3ccc(N(C)C)cc3)C[C@@]21C", "Not fulfilled"]
]}

Enquiry: Dear reviewer, please state whether `C[C@H](c1cccc2ccccc12)N(C)Cc1ccccc1` has % inhibition of gametocyte viability strictly beneath 2%.
Return: Fulfilled

Enquiry: Dear reviewer, please state whether `O=S(=O)(NCB(O)O)c1ccc(-c2nnn[nH]2)cc1C(F)(F)F` has % inhibition of gametocyte viability strictly beneath 2%.
Return: Fulfilled

Enquiry: Dear reviewer, please state whether CCCC1(C2CC2)c2cc(Cl)ccc2NC(=O)N1C (stereo not given) has % inhibition of gametocyte viability strictly beneath 2%.
Return: Fulfilled

Enquiry: Dear reviewer, please state whether `C[C@H](NC(=O)C(=O)Nc1ccccc1C(C)(C)C)C(=O)N[C@@H](CC(=O)O)C(=O)COc1c(F)c(F)cc(F)c1F` has % inhibition of gametocyte viability strictly beneath 2%.
Return: Fulfilled

Enquiry: Dear reviewer, please state whether `CC[C@@H](CO)NCCN[C@@H](CC)CO` has % inhibition of gametocyte viability strictly beneath 2%.
Return: Fulfilled

Enquiry: Dear reviewer, please state whether `CC(C)(C)c1ccc(OCCn2nc(C(=O)O)c3ccccc3c2=O)cc1` has % inhibition of gametocyte viability strictly beneath 2%.
Return: Fulfilled
